Target: human neutrophil elastase (Homo sapiens)
Sequence (P08246 30-267): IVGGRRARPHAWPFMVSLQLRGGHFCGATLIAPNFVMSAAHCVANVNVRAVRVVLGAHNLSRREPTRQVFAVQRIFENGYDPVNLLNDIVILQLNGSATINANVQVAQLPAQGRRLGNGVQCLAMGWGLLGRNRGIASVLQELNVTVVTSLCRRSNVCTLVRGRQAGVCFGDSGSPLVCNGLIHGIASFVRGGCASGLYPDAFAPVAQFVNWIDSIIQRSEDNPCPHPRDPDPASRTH
Experiment: In vitro assay of human neutrophil elastase
Details: in vitro elastase test; purified human neutrophil elastase 11.8 nM, pH 8.6, 15 min at 30° C., 0.6 mM MeO-succinyl-alanyl-alanyl-prolyl-valyl-p-nitroanilide
Where a name gives a salt, the structure may show the parent alone.
Field: IC50. Provide a value for each of the molecules that follow.
# value in nM; strip the unit string

Summary for this molecule, CC(C)[C@H]1C(=O)N(S(C)(=O)=O)[C@H]2CCN(C(=O)C3CN(CC4CC4)C3)[C@H]12 (relative stereo) [Example 1, hydrochloride] : IC50 is 194

Summary for this molecule, CC(C)[C@H]1C(=O)N(S(C)(=O)=O)[C@H]2CCN(C(=O)C3CN(Cc4ccccc4)C3)[C@H]12 (relative stereo) [Example 2, hydrochloride] : IC50 is 229

Summary for this molecule, CC(C)[C@H]1C(=O)N(S(C)(=O)=O)[C@H]2CCN(C(=O)C3CN(Cc4c(Cl)cccc4Cl)C3)[C@H]12 (relative stereo) [Example 4, hydrochloride] : IC50 is 210

Summary for this molecule, CCCCN1CC(C(=O)N2CC[C@H]3[C@H]2[C@@H](C(C)C)C(=O)N3S(C)(=O)=O)C1 (relative stereo) [Example 5, hydrochloride] : IC50 is 93
